Data provenance: ChEMBL document CHEMBL4602676

# ASSAY_TARGET: Neuronal acetylcholine receptor; alpha4/beta2 (Rattus norvegicus, UniProt P09483+P12390)
# Sequence (P09483 whole entry): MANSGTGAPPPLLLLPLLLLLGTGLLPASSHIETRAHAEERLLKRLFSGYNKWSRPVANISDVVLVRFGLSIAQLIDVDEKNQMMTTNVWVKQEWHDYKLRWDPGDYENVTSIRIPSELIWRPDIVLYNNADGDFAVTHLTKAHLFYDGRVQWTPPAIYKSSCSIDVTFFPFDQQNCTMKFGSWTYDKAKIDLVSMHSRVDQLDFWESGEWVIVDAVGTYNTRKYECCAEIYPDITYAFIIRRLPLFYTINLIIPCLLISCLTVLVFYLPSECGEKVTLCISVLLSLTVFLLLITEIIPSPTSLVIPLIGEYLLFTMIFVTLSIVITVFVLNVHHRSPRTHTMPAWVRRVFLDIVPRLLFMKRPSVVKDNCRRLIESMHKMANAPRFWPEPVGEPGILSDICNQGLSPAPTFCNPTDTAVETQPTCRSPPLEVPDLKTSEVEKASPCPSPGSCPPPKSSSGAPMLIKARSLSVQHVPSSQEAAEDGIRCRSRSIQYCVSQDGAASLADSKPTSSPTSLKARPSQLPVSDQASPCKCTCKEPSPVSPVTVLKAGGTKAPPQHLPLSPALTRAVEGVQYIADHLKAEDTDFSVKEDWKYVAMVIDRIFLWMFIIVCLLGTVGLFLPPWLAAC
# Sequence (P12390 whole entry): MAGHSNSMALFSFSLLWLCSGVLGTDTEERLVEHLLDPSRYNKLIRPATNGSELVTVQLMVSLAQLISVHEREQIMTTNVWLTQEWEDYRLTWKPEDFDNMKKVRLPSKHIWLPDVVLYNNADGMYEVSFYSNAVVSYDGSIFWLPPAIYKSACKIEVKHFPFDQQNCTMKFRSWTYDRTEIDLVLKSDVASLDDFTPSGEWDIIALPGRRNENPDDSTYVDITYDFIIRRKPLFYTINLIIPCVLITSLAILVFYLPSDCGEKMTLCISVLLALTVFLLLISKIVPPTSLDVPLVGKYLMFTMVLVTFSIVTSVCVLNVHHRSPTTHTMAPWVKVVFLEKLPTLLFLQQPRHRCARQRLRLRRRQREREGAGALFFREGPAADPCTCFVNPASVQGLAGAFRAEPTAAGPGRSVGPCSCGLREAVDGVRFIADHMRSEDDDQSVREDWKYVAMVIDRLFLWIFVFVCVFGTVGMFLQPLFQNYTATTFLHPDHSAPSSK
# TEST_SUMMARY: In vivo receptor occupancy at alpha4beta2 nAChR in Wistar rat assessed as plasma concentration pretreated for 15 mins followed by non radiolabelled ZW-104 tracer treatment and measured after 45 mins by LC-MS/MS analysis
# Assay type: functional, organism-based
MEASURED_PROPERTY: EC50 (µM)
Provide only the numeric value, understood in µM.

Kindly state the measured EC50 obtained for Cl.Clc1ccc(OC[C@@H]2C[C@H]3C[C@H]3N2)cn1 with Neuronal acetylcholine receptor; alpha4/beta2 (Rattus norvegicus, UniProt P09483+P12390). 259

###

# TEST_SUMMARY: Metabolic stability in rat liver microsomes assessed as compound metabolism incubated for 30 mins in presence of NADPH by LC-MS/MS analysis
# Type: ADME, Microsome
# MEASUREMENT_PARAMETERS: read-out: Drug metabolism
Catalogue of compounds with associated metabolised at 0.5 h
# value in %; strip the unit string

Example compounds with recorded metabolised at 0.5 h:
{"columns": ["SMILES", "RECORDED_NUMBER"],
 "data": [
  ["Cl.Clc1ccc(OC[C@H]2C[C@@H]3C[C@@H]3N2)cn1", 26.2],
  ["Cl.Clc1ncccc1OC[C@@H]1C[C@H]2C[C@H]2N1", 14.9],
  ["Cl.c1cncc(OC[C@@H]2CC[C@H]3C[C@H]3N2)c1", 17],
  ["Cl.Clc1ccc(OC[C@@H]2CC[C@H]3C[C@H]3N2)cn1", 72.8],
  ["Cl.Clc1ccc(OC[C@@H]2C[C@@H]3C[C@@H]3N2)cn1", 36],
  ["Clc1cncc(OC[C@H]2NC[C@@H]3C[C@@H]32)c1", 12.1]
]}

Can you look up the measured metabolised at 0.5 h of Cl.c1cncc(OC[C@@H]2C[C@H]3C[C@H]3N2)c1 for me? 17.9

Then Cl.Fc1ccc(OC[C@@H]2C[C@H]3C[C@H]3N2)cn1 ? 5.1

###

# ASSAY_TARGET: Neuronal acetylcholine receptor; alpha3/beta4 (Homo sapiens, UniProt P30926+P32297)
# Sequence (P30926 whole entry): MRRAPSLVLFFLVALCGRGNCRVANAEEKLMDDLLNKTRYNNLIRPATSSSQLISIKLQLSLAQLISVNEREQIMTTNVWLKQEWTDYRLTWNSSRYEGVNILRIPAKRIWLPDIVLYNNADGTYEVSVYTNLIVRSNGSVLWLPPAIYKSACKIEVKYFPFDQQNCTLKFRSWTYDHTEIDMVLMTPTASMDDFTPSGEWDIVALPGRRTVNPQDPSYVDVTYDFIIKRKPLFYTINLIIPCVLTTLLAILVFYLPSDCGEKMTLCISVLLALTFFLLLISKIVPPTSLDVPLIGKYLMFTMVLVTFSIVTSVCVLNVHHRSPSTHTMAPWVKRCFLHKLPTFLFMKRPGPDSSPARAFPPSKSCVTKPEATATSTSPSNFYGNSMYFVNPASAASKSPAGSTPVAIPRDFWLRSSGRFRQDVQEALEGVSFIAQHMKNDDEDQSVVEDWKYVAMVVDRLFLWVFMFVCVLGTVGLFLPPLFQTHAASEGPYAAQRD
# Sequence (P32297 whole entry): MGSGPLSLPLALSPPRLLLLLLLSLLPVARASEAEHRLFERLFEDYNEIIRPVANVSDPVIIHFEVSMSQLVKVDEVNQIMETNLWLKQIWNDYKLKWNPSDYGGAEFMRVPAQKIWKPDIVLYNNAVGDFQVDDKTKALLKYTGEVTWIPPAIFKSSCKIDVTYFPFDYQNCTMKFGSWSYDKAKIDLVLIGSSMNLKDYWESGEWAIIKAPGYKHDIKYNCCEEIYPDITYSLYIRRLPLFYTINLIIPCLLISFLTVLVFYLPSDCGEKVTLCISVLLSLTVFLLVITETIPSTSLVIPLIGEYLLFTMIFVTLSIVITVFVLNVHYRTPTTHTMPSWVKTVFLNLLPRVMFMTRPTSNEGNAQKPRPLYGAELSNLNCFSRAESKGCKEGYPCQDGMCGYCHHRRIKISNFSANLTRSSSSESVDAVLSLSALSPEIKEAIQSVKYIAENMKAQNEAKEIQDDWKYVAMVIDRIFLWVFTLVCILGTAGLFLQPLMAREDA
# TEST_SUMMARY: Displacement of [3H]epibatidine from human alpha3beta4 nAChR expressed in IMR32 cell membrane by microbeta scintillation counting method
MEASURED_PROPERTY: pKi
Scale for pKi: -log10 of concentration given in mol/L; no unit attached.

{"columns": ["SMILES", "pKi"],
 "data": [
  ["Cl.c1cncc(OC[C@@H]2CC[C@H]3C[C@H]3N2)c1", 7.16]
]}

For the molecule Cl.c1cncc(OC[C@@H]2C[C@@H]3C[C@@H]3N2)c1 , what pKi is on record? 6.25

###

# TEST_SUMMARY: Volume of distribution in Beagle dog at 1 mg/kg, iv by LC-MS/MS analysis
# Format: ADME, organism-based, Canis lupus familiaris
# MEASUREMENT_PARAMETERS: in vivo
MEASURED_PROPERTY: Vd (L/kg)
The response must be a number in L/kg with no trailing unit.

Fill in: Vd of Cl.Clc1ccc(OC[C@@H]2C[C@H]3C[C@H]3N2)cn1 is ___ 1.3

###

# ASSAY_TARGET: Neuronal acetylcholine receptor; alpha4/beta2 (Homo sapiens, UniProt P17787+P43681)
# Sequence (P17787 whole entry): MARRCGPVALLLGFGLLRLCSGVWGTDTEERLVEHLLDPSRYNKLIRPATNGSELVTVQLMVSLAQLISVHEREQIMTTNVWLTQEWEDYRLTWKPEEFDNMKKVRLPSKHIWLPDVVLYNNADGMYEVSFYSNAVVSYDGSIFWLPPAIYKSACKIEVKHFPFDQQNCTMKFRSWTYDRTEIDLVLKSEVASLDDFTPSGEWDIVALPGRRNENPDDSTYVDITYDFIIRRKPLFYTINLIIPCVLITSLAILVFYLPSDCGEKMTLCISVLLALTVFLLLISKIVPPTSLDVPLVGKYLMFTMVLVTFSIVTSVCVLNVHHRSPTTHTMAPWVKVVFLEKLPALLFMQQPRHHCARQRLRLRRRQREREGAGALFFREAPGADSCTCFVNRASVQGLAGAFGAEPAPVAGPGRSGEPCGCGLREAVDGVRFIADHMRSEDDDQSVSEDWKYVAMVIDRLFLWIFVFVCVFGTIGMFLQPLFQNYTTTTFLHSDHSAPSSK
# Sequence (P43681 whole entry): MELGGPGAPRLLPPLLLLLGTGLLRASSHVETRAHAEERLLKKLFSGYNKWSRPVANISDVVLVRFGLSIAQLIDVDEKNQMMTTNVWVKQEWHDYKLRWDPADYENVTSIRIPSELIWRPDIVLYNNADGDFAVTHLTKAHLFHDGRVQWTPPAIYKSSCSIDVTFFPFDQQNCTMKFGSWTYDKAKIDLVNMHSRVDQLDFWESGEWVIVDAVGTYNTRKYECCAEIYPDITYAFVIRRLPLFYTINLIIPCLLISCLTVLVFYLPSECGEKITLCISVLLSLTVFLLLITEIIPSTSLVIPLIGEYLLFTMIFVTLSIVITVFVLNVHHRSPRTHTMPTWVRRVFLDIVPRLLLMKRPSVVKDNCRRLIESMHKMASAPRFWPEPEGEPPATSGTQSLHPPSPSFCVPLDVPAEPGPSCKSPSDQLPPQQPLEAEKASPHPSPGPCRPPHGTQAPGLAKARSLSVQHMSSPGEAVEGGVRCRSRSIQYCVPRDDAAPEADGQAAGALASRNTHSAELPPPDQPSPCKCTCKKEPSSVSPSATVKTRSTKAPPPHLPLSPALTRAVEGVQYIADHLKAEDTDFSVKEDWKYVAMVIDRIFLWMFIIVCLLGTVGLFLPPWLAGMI
# TEST_SUMMARY: Displacement of [3H]cytisine from human alpha4beta2 nAChR expressed in CHOK1 cell membrane by microbeta scintillation counting method
MEASURED_PROPERTY: pKi
Recall that pKi is obtained by taking minus log10 of the concentration measured in molar.

These solved cases illustrate the format of a correct answer.
{"columns": ["COMPOUND", "pKi"],
 "data": [
  ["Cc1ccc(OC[C@@H]2C[C@H]3C[C@H]3N2)cn1", 7.58],
  ["Brc1ccc(OC[C@@H]2C[C@H]3C[C@H]3N2)cn1", 7.33],
  ["COc1ccc(OC[C@@H]2C[C@@H]3C[C@@H]3N2)cn1", 8.33],
  ["C[C@@]12C[C@@H]1CC(COc1cccnc1)N2 (some centres undefined)", 8.44]
]}

pKi for CN1[C@H](COc2cccnc2Cl)C[C@H]2C[C@H]21 ? 7.55

Same question, CN1[C@H](COc2ccc(F)nc2)C[C@H]2C[C@H]21 this time 8.96

Can you check Clc1ccc(OC[C@H]2NC[C@@H]3C[C@@H]32)cn1 next? 9.70

Same thing, different compound: Cl.Clc1ncccc1OC[C@@H]1C[C@H]2C[C@H]2N1 7.76

Same for Clc1cncc(OC[C@H]2NC[C@@H]3C[C@@H]32)c1 9.70
